target: T1, human αvβ5 expressed on BaF3 cells (stably transfected with human αv and β5 subunits) (human, UniProt P06756 31-1048; P18084 24-799); assay: FACS on αvβ5-BaF3 cells, unpurified antibody
T1 construct: also called αvβ5-BaF3; BaF3-hu αvβ5
T1 sequence (P06756 31-1048 limits assumed, chain 1 of 2): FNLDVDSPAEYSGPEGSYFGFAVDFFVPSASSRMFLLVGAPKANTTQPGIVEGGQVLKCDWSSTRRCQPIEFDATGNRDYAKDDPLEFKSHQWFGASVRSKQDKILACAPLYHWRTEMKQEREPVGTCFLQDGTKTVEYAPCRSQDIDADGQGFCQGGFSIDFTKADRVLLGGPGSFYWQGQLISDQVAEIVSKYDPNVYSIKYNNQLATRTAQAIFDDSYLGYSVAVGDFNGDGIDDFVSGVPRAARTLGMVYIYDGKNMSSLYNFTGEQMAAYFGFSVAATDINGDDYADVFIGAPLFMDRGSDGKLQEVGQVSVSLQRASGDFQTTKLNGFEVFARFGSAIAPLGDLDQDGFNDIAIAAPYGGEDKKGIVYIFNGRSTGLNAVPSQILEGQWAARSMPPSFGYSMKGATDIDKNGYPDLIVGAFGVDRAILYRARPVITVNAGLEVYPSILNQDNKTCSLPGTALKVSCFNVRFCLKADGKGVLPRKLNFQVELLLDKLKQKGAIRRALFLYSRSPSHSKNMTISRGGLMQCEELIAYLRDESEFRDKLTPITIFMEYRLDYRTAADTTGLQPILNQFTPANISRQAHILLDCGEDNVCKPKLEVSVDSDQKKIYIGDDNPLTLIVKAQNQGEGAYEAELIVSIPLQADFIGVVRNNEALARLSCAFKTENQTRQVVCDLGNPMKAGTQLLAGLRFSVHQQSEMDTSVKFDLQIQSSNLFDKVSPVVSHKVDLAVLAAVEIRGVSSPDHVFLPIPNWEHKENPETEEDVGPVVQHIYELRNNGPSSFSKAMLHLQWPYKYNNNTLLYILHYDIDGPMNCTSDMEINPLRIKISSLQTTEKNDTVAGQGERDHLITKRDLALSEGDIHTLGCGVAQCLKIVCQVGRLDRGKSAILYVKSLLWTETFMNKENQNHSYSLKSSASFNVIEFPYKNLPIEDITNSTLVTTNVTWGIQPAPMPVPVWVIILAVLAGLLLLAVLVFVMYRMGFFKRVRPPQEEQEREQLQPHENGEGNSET
T1 sequence (P18084 24-799 limits assumed, chain 2 of 2): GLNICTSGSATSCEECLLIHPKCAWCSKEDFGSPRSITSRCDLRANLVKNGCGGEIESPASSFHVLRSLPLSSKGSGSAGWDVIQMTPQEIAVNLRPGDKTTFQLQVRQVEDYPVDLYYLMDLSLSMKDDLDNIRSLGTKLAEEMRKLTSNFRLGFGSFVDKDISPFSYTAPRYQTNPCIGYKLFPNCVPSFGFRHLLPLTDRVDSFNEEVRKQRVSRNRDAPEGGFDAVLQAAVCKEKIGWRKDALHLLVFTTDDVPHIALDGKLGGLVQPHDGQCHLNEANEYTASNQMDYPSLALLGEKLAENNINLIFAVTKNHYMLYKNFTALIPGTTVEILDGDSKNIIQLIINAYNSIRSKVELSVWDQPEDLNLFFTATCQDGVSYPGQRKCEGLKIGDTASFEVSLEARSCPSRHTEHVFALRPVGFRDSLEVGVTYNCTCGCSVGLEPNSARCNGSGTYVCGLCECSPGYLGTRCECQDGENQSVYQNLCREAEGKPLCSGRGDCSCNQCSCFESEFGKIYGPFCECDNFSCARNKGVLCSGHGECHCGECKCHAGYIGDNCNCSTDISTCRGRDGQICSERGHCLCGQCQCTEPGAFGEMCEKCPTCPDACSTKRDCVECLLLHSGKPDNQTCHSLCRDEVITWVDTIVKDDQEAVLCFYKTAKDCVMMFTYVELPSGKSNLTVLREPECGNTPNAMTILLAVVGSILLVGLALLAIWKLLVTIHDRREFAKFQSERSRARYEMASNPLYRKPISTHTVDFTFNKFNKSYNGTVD
Quantity Measured: EC50 (nM)
Just the number in nM, nothing appended.

Data request: Quick one: EC50 of VH4/VL1 Agly-hIgG1(T299A) (antibody, V domains shown, also called H4/L1) VH: EVQVVQSGGGLVKPGESLRLSCKASGYTFTSYWMHWVKQAPGKGLEWVGAIYPGNSDTSYNQKFKGKFTISADTSPNTAYLQMNSLKTEDTAVYYCTTTTYGYDWFAYWGQGTLVTVSS VL: DIQMTQSPSSLSASVGDRVTMTCKSSQSVLYSSNQKNYLAWYQQKPGKAPKLLIYWASTRESGVPDRFSGSGSGTDFTLTISSLQPEDFATYYCHQYLSSLTFGQGTKLEIK ?
Data returned: 126

All values here come from patent US20170362324A1.
